Data provenance is paper PMC7070908.

# Tested on: OPM-2 myeloma cell line
# assay: Cytotoxicity, flow cytometry (AnnexinV/propidium iodide negativity), OPM-2
# Format: cell-based, human
# experimental context: 12.5 µM, 24 h, second round (Table 3)
measured metric: MM Cells % Alive OPM-2 (%)
Value expressed in %; do not type the unit.

In the examples that follow, each entry is paired with its recorded MM Cells % Alive OPM-2.
{"molecule": "COC(C)(C)C1OC23OC1CC(C)C2C1(C)CCC24CC25CCC(OC2OCC(O)C(O)C2O)C(C)(C)C5CCC4C1(C)C3O (stereo not shown) [Compound 7]", "MM Cells % Alive OPM-2, %": 99.8}
{"molecule": "CC(=O)OC(C)(C)C1OC23OC1CC(C)C2C1(C)CCC24CC25CCC(OC2OCC(O)C(O)C2O)C(C)(C)C5CCC4C1(C)C3O (stereo not shown) [Compound 4]", "MM Cells % Alive OPM-2, %": 94.8}
{"molecule": "CC1CC2OC3(OC2C(C)(C)O)C1C1(C)CCC24CC25CCC(OC2OCC(O)C(O)C2O)C(C)(C)C5CCC4C1(C)C3O [Compound 6, cimigenol-3-O-β-D-xylopyranoside]", "MM Cells % Alive OPM-2, %": 101.7}
{"molecule": "C=C(C)C1OC23OC1CC(C)C2C1(C)CCC24CC25CCC(OC2OCC(O)C(O)C2O)C(C)(C)C5CCC4C1(C)C3O (stereo not shown) [Compound 9]", "MM Cells % Alive OPM-2, %": 95.8}
{"molecule": "COC(C)(C)C1OC23OC1CC(C)C2C1(C)CCC24CC25CCC(OC2OCC(O)C(O)C2O)C(C)(C)C5CCC4C1(C)C3O (stereo not shown) [Compound 8]", "MM Cells % Alive OPM-2, %": 97.8}
{"molecule": "CC1CC2OC3(OC2C(C)(C)O)C1C1(C)CCC24CC25CCC(OC2OCC(O)C(O)C2O)C(C)(C)C5CCC4C1(C)C3O [Compound 5, cimigenol-3-O-α-L-arabinopyranoside]", "MM Cells % Alive OPM-2, %": 99.8}

Continue with the molecule presented below.
OPM-2 myeloma cell line / MM Cells % Alive OPM-2 / CC(=O)OC(C)(C)C1OC23OC1CC(C)C2C1(C)CCC24CC25CCC(OC2OCC(O)C(O)C2O)C(C)(C)C5CCC4C1(C)C3O (stereo not shown) [Compound 3] : value?
99.5

###

# Test system: U266 myeloma cell line
# assay: Cytotoxicity, flow cytometry (AnnexinV/propidium iodide negativity), U266
# Type: cell-based, human
# experimental context: 25 µM, 24 h, second round (Table 3)
measured metric: MM Cells % Alive U266 (%)
Value expressed in %; do not type the unit.

{"compound": "CC1CC2OC3(OC2C(C)(C)O)C1C1(C)CCC24CC25CCC(OC2OCC(O)C(O)C2O)C(C)(C)C5CCC4C1(C)C3O [Compound 5, cimigenol-3-O-α-L-arabinopyranoside]", "target of assay": "U266 myeloma cell line", "measured metric": "MM Cells % Alive U266", "recorded result": 95.8}
{"compound": "CC(=O)OC(C)(C)C1OC23OC1CC(C)C2C1(C)CCC24CC25CCC(OC2OCC(O)C(O)C2O)C(C)(C)C5CCC4C1(C)C3O (stereo not drawn) [Compound 4]", "target of assay": "U266 myeloma cell line", "measured metric": "MM Cells % Alive U266", "recorded result": 87.8}

Continue with the compound presented below.
U266 myeloma cell line / MM Cells % Alive U266 / COC(C)(C)C1OC23OC1CC(C)C2C1(C)CCC24CC25CCC(OC2OCC(O)C(O)C2O)C(C)(C)C5CCC4C1(C)C3O (stereo not drawn) [Compound 7] : value?
51.3
